Target: angiotensin-converting enzyme (ACE) from rabbit lung (Oryctolagus cuniculus)
Format: biochemical
Set-up: angiotensin-converting enzyme (ACE) from rabbit lung; purchased Sigma-Aldrich (Zwijndrecht, The Netherlands); host or cells: rabbit lung tissue
Conditions: peptide in bioactive wells after LC nanofractionation of crude venom, sequenced by nanoLC-MS/MS
Where no end group is shown, it is not given here. [ ]: non-standard residue; d: D form. pGlu = O=C1CC[C@@H](C(=O)O)N1
measurement label: ACE inhibitory peptide assigned to bioactivity peak (in words)

* pEQWPPGHH(I/L)PP | ACE inhibitory peptides
* [pGlu]NWPRPKVPP | ACE inhibitory peptides

====

Biological target: angiotensin-converting enzyme (ACE) from rabbit lung (Oryctolagus cuniculus, UniProt P12822)
Sequence (P12822 34-1310): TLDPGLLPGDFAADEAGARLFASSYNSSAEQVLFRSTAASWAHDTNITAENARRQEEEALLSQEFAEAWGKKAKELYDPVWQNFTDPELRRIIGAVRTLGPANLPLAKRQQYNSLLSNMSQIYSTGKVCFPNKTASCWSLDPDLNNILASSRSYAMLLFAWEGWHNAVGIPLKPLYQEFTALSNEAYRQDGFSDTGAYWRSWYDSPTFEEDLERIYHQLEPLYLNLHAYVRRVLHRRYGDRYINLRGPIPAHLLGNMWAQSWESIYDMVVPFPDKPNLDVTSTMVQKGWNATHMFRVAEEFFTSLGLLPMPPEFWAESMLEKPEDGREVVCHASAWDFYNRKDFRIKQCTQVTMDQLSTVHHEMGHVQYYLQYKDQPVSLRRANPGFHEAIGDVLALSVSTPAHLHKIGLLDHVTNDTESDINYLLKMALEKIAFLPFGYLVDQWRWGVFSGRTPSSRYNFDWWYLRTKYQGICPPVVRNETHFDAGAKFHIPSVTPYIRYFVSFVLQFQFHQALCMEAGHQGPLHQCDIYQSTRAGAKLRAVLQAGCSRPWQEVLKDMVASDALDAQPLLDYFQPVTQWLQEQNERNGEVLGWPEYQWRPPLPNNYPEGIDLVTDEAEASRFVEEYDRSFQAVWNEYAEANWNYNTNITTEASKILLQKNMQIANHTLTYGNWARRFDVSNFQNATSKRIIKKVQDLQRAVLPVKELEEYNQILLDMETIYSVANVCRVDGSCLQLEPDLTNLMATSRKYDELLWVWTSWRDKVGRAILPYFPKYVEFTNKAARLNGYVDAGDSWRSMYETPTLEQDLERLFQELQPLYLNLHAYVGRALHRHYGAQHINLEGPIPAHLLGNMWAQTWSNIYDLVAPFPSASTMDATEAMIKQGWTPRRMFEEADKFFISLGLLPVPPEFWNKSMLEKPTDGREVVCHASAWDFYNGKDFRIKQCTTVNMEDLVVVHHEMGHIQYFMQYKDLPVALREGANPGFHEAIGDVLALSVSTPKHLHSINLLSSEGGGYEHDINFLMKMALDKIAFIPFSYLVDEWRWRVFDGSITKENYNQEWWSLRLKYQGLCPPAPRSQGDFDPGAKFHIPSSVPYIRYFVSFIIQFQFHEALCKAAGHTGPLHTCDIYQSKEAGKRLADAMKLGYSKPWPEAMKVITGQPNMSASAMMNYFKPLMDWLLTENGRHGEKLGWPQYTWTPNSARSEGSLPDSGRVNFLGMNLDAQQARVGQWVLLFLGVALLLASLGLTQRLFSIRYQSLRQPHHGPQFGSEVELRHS
Where a SMILES comes first, the peptide text is derived from it. [ ]: non-standard residue; d: D form. pGlu = O=C1CC[C@@H](C(=O)O)N1
measurement label: IC50
Give the figure together with its unit, number first.

Answered cases to consult:
- CC[C@H](C)[C@H](NC(=O)[C@@H]1CCCN1C(=O)[C@@H]1CCCN1C(=O)[C@H](CCCNC(=N)N)NC(=O)[C@@H]1CCCN1C(=O)[C@@H]1CCCN1C(=O)[C@H](Cc1c[nH]c2ccccc12)NC(=O)[C@@H]1CCCN1C(=O)[C@@H]1CCCN1C(=O)[C@H](Cc1c[nH]c2ccccc12)NC(=O)[C@@H]1CCC(=O)N1)C(=O)N1CCC[C@H]1C(=O)N1CCC[C@H]1C(=O)O ([pGlu]WPPWPPRPPIPP-OH; C-terminus assumed): 3470 nM
- CC[C@H](C)[C@H](NC(=O)[C@@H]1CCC(=O)N1)C(=O)N[C@@H](Cc1c[nH]c2ccccc12)C(=O)N1CCC[C@H]1C(=O)N[C@@H](CCCNC(=N)N)C(=O)N1CCC[C@H]1C(=O)N[C@@H](Cc1c[nH]cn1)C(=O)N[C@H](C(=O)N1CCC[C@H]1C(=O)N1CCC[C@H]1C(=O)O)C(C)C ([pGlu]IWPRPHVPP-OH): 1010 nM
- CC(C)C[C@H](NC(=O)[C@@H]1CCC(=O)N1)C(=O)N[C@@H](Cc1c[nH]c2ccccc12)C(=O)N1CCC[C@H]1C(=O)N[C@@H](CCCNC(=N)N)C(=O)N1CCC[C@H]1C(=O)N[C@@H](Cc1c[nH]cn1)C(=O)N[C@H](C(=O)N1CCC[C@H]1C(=O)N1CCC[C@H]1C(=O)O)C(C)C ([pGlu]LWPRPHVPP-OH): 1090 nM

As a next step, examine the compound that follows.
For CC(C)C[C@H](NC(=O)[C@@H]1CCCN1C(=O)[C@@H]1CCCN1C(=O)[C@H](CCCNC(=N)N)NC(=O)[C@@H]1CCCN1C(=O)[C@@H]1CCCN1C(=O)[C@H](Cc1c[nH]c2ccccc12)NC(=O)[C@@H]1CCCN1C(=O)[C@@H]1CCCN1C(=O)[C@H](Cc1c[nH]c2ccccc12)NC(=O)[C@@H]1CCC(=O)N1)C(=O)N1CCC[C@H]1C(=O)N1CCC[C@H]1C(=O)O ([pGlu]WPPWPPRPPLPP-OH) the compound record lists IC50 as 3370 nM
